Parameter: IC50. Scope: all listed entries.
Test system: Leishmania amazonensis amastigotes
Experiment: Anti-amastigotes assay (intra-macrophagic stage, J774A.1)
Format: cell-based
Conditions: J774.A1; Leishmania amazonensis, intracellular in J774A.1; read-out: IC50: amastigote
# unit: nM | format: bare number

Solved entries (count: 3):
CCCCCCCCCCCCCCCCOP(=O)([O-])OCC[N+](C)(C)C [Miltefosine, reference compound] :: 3110
C=C1CC[C@@H]([C@@](C)(O)CCC=C(C)C)[C@@H](O)[C@@H]2C(C)=CC[C@@H]12 :: 2030
CC(C)=CCC[C@](C)(O)[C@@H]1CC[C@@H](C)[C@@H]2CC=C(C)[C@H]2[C@@H]1O :: 970

--- query ---
Output IC50 of C=C(C)[C@H]1CC[C@]2(C)C[C@@H]3O[C@@]3(C)CC/C=C(\C)CC[C@@H]12 [Compound 3, 3,4-epoxy-7,18-dolabelladiene]
3880

---

Assay: Cytotoxicity on macrophages (AlamarBlue, 24 h)
Type: cell-based
Details: mouse, J774A.1 macrophages, J774A.1, 24 h, read-out: CC50: murine macrophages
Parameter: log10(CC50 at 24 h). Scope: all listed entries.
Record value = log10 of CC50 at 24 h given in µM.

Solved entries (count: 4):
CC(C)=CCC[C@](C)(O)[C@@H]1CC[C@@H](C)[C@@H]2CC=C(C)[C@H]2[C@@H]1O :: 1.57
C=C(C)[C@H]1CC[C@]2(C)C[C@@H]3O[C@@]3(C)CC/C=C(\C)CC[C@@H]12 [Compound 3, 3,4-epoxy-7,18-dolabelladiene] :: 1.85
CCCCCCCCCCCCCCCCOP(=O)([O-])OCC[N+](C)(C)C [Miltefosine, reference compound] :: 1.86
O=C(Cn1ccnc1[N+](=O)[O-])NCc1ccccc1 [Benznidazole, reference compound] :: 2.60

--- query ---
Output log10(CC50 at 24 h) of "C=C1CC[C@@H]([C@@](C)(O)CCC=C(C)C)[C@@H](O)[C@@H]2C(C)=CC[C@@H]12"
1.72
